The reported measurements were obtained from paper PMC5873253.

- Tgt: OsMADS57 (Oryza sativa)
- Protocol description: SPR
- Particulars: SPR (Biacore 3000, SA chip): 10 mM Hepes pH 7.9, 50 mM KCl, 1 mM EDTA, 0.5 mM DTT, 5 mM MgCl2, 10% glycerol, 0.005% P20, 25 or 4 C, protein 0.15-4.80 uM; EMSA: …
Attribute measured: pKd
Numbers only, as −log10 of the molar value.

Provide measured pKd value, entry: TTAACTTTAAAAAGTTAGTTAACTTTAAAAAGTTAGTTAACTTTAAAAAGTTAG (double strand) [WRKY94S2]
6.15
